Reported MIC values are given for each entry in this list.
System: Pseudomonas aeruginosa
method: Minimum inhibitory concentration was measured against Pseudomonas aeruginosa A 20653
Assay type: functional
parameter: MIC

- NCC1OC(OC2C(NC(=O)OCc3ccccc3)CC(N)C(O)C2O)C2NC2C1O (stereo unspecified): > 125 µg/mL
- NC[C@H]1O[C@H](O[C@H]2[C@H](O)[C@@H](O[C@H]3O[C@H](CO)[C@@H](O)[C@H](N)[C@H]3O)[C@H](N)C[C@@H]2N)[C@H](O)[C@@H](O)[C@@H]1O [KANAMYCIN]: > 125 µg/mL
- NCC1OC(OC2C(N)CC(N)C(OC3OC(CO)C(O)C(N)C3O)C2O)C2NC2C1O (stereo unspecified): 125 µg/mL
- NCC1OC(OC2C(NC(=O)OCc3ccccc3)CC(N)C(O)C2OC2O[C@H](CO)[C@@H](O)[C@H]2O)C2NC2C1O (stereo partly specified): > 125 µg/mL
- NCC1OC(OC2C(NC(=O)OCc3ccccc3)CC(N)C(O)C2O)C(N)C(O)C1O (stereo unspecified): > 125 µg/mL
- NCC1OC(OC2C(N)CC(N)C(OC3OC(CO)C(O)C4NC34)C2O)C(N)C(O)C1O (stereo unspecified): > 125 µg/mL

---

MIC overview
Test system: Providencia rettgeri
method: Minimum inhibitory concentration was measured against Proteus rettgeri A 21615, in combination with Kanamycin A at 8 ug/mL concentration
Type: functional
parameter: MIC

• NCC1OC(OC2C(N)CC(N)C(OC3OC(CO)C(O)C(N)C3O)C2O)C2NC2C1O (stereo not given) = 125 µg/mL
• NCC1OC(OC2C(N)CC(N)C(OC3OC(CO)C(O)C4NC34)C2O)C(N)C(O)C1O (stereo not given) = 63 µg/mL
• NCC1OC(OC2C(NC(=O)OCc3ccccc3)CC(N)C(O)C2O)C2NC2C1O (stereo not given) = > 125 µg/mL
• NCC1OC(OC2C(NC(=O)OCc3ccccc3)CC(N)C(O)C2OC2O[C@H](CO)[C@@H](O)[C@H]2O)C2NC2C1O (stereo not given in full) = 125 µg/mL
• NCC1OC(OC2C(NC(=O)OCc3ccccc3)CC(N)C(O)C2O)C(N)C(O)C1O (stereo not given) = 125 µg/mL

---

System: Escherichia coli
method: Minimum inhibitory concentration was measured against Escherichia coli A 9632, in combination with Kanamycin A at 8 ug/mL concentration
Type: functional
# maps each entry to its MIC
parameter: MIC (µg/mL)

• NCC1OC(OC2C(N)CC(N)C(OC3OC(CO)C(O)C4NC34)C2O)C(N)C(O)C1O (centres undefined) = 1
• NCC1OC(OC2C(N)CC(N)C(OC3OC(CO)C(O)C(N)C3O)C2O)C2NC2C1O (centres undefined) = 0.25
• NCC1OC(OC2C(NC(=O)OCc3ccccc3)CC(N)C(O)C2OC2O[C@H](CO)[C@@H](O)[C@H]2O)C2NC2C1O (some centres undefined) = 1
• NCC1OC(OC2C(NC(=O)OCc3ccccc3)CC(N)C(O)C2O)C(N)C(O)C1O (centres undefined) = 2

Data provenance is ChEMBL document CHEMBL1121523.
